Measured values drawn from paper PMC9299185 for this set.

Experiment: Honey bee acute contact toxicity and synergism study
Format: in vivo, Apis mellifera
Conditions: female, Apis mellifera (honey bee), in vivo, topical, 2 μg/bee, honey bee mortality, topical 2 μg/bee CPR alone, 48 h, ± SEM, n = 3
measurement type: mortality at 48 h

{"smiles repr": "CNC(=O)c1cc(Cl)cc(C)c1NC(=O)c1cc(Br)nn1-c1ncccc1Cl", "test value": "12%"}

---

Molecular target: honey bee CYP6AQ1 (Apis mellifera)
Sequence (F1DPP0 1-514): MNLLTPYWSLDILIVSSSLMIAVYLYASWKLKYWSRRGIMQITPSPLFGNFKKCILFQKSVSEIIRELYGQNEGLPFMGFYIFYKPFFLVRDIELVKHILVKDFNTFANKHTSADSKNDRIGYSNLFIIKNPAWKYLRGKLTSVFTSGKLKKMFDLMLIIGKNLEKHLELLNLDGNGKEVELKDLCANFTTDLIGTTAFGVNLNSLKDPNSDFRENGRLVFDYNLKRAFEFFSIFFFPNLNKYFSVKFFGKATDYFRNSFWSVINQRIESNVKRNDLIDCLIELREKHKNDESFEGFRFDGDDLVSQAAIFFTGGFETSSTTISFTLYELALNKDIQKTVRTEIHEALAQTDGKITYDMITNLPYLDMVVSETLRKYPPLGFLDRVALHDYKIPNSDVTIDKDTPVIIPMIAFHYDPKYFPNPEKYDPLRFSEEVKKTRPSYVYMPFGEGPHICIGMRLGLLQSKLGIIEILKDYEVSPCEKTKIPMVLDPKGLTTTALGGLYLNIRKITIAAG
Sequence (A0A8U1CY41 1-694 partner): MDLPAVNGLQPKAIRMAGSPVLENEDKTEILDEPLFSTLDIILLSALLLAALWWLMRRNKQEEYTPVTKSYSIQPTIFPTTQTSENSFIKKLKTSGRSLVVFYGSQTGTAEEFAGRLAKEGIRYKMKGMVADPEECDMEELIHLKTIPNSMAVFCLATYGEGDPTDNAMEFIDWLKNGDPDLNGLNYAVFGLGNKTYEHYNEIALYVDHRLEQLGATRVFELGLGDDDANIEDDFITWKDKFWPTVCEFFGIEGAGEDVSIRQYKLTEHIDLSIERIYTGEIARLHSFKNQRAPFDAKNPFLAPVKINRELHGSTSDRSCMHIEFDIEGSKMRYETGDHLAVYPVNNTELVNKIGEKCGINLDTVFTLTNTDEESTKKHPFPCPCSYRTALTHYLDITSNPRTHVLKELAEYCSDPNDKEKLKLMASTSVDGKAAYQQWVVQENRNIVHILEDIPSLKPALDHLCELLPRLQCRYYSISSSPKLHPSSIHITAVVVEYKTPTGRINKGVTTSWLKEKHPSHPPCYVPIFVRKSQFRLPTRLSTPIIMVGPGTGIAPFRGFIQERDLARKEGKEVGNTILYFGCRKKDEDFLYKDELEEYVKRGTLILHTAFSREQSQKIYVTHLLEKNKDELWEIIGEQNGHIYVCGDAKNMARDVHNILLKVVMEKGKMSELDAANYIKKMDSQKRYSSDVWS
Test: Fluorescence-based BOMFC probe assay with recombinantly expressed CYP6AQ1
pIC50: −log10 of the molar value.
Here, each record is paired with measured pIC50 data.

{"compound": "CNC(=O)c1cc(Cl)cc(C)c1NC(=O)c1cc(Br)nn1-c1ncccc1Cl [Chlorantraniliprole]", "pIC50": "< 4.00"}
{"compound": "Cc1cc(C(F)(C(F)(F)F)C(F)(F)F)ccc1NC(=O)c1cccc(I)c1C(=O)NC(C)(C)CS(C)(=O)=O [Flubendiamide, flubendiamide]", "pIC50": "< 4.00"}
